All figures here come from patent US9937115B2.

Exercise: for every item that follows, state its recorded activation at 100 µM.
# ASSAY_SYSTEM: TRPA1 receptor (Homo sapiens, UniProt O75762)
# Construct: expressed in transfected cells; host or cells: HEK cell line
# Sequence (O75762 whole entry): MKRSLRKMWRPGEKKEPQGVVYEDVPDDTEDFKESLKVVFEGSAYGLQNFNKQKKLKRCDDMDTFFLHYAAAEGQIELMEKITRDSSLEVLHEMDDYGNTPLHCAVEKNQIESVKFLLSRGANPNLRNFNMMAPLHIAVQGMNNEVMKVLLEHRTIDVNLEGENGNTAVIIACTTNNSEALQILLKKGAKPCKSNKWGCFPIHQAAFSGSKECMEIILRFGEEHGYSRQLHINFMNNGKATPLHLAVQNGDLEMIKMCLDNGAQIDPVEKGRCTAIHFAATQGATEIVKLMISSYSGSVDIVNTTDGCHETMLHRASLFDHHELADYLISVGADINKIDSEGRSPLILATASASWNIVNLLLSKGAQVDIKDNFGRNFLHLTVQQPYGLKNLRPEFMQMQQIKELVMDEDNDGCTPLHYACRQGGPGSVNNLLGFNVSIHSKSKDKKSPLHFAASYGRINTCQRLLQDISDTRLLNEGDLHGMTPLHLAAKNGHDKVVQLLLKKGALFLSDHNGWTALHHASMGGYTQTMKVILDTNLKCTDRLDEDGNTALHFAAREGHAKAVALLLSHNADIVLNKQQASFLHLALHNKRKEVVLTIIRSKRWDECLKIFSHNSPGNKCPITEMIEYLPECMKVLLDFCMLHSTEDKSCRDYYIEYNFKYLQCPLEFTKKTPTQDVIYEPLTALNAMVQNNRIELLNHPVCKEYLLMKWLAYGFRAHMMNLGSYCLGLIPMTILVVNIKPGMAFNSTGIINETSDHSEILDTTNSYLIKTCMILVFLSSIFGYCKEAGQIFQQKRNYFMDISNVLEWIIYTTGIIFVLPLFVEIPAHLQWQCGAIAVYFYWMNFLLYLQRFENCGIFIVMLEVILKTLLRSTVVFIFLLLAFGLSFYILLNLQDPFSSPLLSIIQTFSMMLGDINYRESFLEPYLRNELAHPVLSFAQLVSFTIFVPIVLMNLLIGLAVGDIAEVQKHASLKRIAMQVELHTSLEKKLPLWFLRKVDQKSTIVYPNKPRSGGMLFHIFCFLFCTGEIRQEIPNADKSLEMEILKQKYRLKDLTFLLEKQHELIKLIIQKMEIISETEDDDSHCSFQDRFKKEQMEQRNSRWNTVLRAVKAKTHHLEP
# PROTOCOL_DESCRIPTION: cell-based
# SETTINGS: HEK293; percentage of the control (allyl isothiocyanate) calcium count; material dissolved in DMSO at 100 micromolar; HEK cells with TRPA1; direct addition; read-out: TRPA1 Direct addition
Give bare numbers, in %.

Sample answers from the record:
Prompt: Value lookup for activation at 100 µM; key = CCCCCC/C=C/CO [Trans-2-Nonen-1-ol]
Response: -0.49

Prompt: Value lookup for activation at 100 µM; key = "CCCCCC(=Cc1ccccc1)C(OC)OC"
Response: -2.4

API: the following record is the query input.
Prompt: Value lookup for activation at 100 µM; key = CC(C)CC(=O)OCC=Cc1ccccc1 [Cinnamyl Isovalerate]
Response: -0.43

====

Exercise: for every item that follows, state its recorded TRPA1 Pre-incubation.
# ASSAY_SYSTEM: TRPA1 receptor (Homo sapiens, UniProt O75762);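 as to TRPA1 Pre-incubation: values above 100 mean more active than the control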
# Construct: expressed in transfected cells; host or cells: HEK cell line
# Type: cell-based
# SETTINGS: percentage of the control (allyl isothiocyanate) calcium count, material dissolved in DMSO at 100 micromolar, HEK cells with TRPA1
One number for each entry, in %.

Sample answers from the record:
Prompt: Value lookup for TRPA1 Pre-incubation; key = "C/C=C/c1ccc(OCC)c(OC)c1"
Response: 111.43

Prompt: Value lookup for TRPA1 Pre-incubation; key = CC(=O)O[C@@H]1C[C@H](C)CC[C@H]1C(C)C [Laevo Menthyl Acetate]
Response: 87.91

Prompt: Value lookup for TRPA1 Pre-incubation; key = C/C=C\C(=O)C1C(C)=CCCC1(C)C (centres unmarked)
Response: 96.58

Prompt: Value lookup for TRPA1 Pre-incubation; key = CCCC(=O)OCc1ccc(OC)cc1 [Anisyl butyrate]
Response: 112.61

Next:
Prompt: Value lookup for TRPA1 Pre-incubation; key = "C=C/C(C)=C/C/C=C(\C)CCC=C(C)C"
Response: 90.8

====

Exercise: for every item that follows, state its recorded TRPA1 Pre-incubation.
# ASSAY_SYSTEM: TRPA1 receptor (Homo sapiens, UniProt O75762);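 as to TRPA1 Pre-incubation: values above 100 mean more active than the control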
# Construct: expressed in transfected cells; host or cells: HEK cell line
# Type: cell-based
# SETTINGS: percentage of the control (allyl isothiocyanate) calcium count, material dissolved in DMSO at 100 micromolar, HEK cells with TRPA1
Numbers only, in %.

Sample answers from the record:
Prompt: Value lookup for TRPA1 Pre-incubation; key = [Cl][Sn][Cl] [Stannous Chloride]
Response: 54.35

Prompt: Value lookup for TRPA1 Pre-incubation; key = CC(C)=CCCC(C)CCO (stereo not drawn)
Response: 51.22

API: the following record is the query input.
Prompt: Value lookup for TRPA1 Pre-incubation; key = CCOC(=O)c1ccccc1N [Ethyl Anthrailate]
Response: 61.95

====

# ASSAY_SYSTEM: TRPA1 receptor (Homo sapiens, UniProt O75762)
# Construct: expressed in transfected cells; host or cells: HEK cell line
# PROTOCOL_DESCRIPTION: cell-based
# SETTINGS: HEK293; percentage of the control (allyl isothiocyanate) calcium count; material dissolved in DMSO at 100 micromolar; HEK cells with TRPA1; direct addition; read-out: TRPA1 Direct addition
REPORTED_PROPERTY: activation at 100 µM (%)
Answers are plain numbers, in %.

Sample answers from the record:
Prompt: Value lookup for activation at 100 µM; key = CCC/C=C/C=O [trans-2-Hexenal]
Response: 1.62

Prompt: Value lookup for activation at 100 µM; key = CCC1OC(=O)C(O)=C1C (stereo not shown)
Response: 1.79

Prompt: Value lookup for activation at 100 µM; key = "CC(C)c1ccc(C=O)cc1"
Response: 25.6

Prompt: Value lookup for activation at 100 µM; key = Cc1coc2c1CCC(C)C2 (stereo not shown)
Response: 0.57

Prompt: Value lookup for activation at 100 µM; key = "CC(=O)c1cc(C)sc1C"
Response: 5.75

Prompt: Value lookup for activation at 100 µM; key = CCCCOC(=O)CC [Butyl Propionate]
Response: -0.32

API: the following record is the query input.
Prompt: Value lookup for activation at 100 µM; key = CCCCOC(=O)CCC [Butyl Butyrate]
Response: -0.66
